# key: entry, value: folding stability dG
B1: r11_951_TrROS_Hall (parent)
chain: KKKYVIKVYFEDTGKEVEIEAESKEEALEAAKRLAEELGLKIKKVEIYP

Variants of: B1
MEASUREMENT PROTOCOL: folding stability dG (cDNA display proteolysis); higher = more stable
CONDITION: PBS, room temperature
OBSERVATION TYPE: folding stability dG (kcal/mol)

>>> readout_value("V45A")
3.96
>>> readout_value("S23K")
3.92
>>> readout_value("E46K")
4.22
>>> readout_value("Y48G")
4.33
>>> readout_value("A27I")
4.09
>>> readout_value("K15E")
4.35
>>> readout_value("G39I")
3.67
>>> readout_value("A21M")
4.26
>>> readout_value("L34E")
3.68
>>> readout_value("K43F")
4.53
>>> readout_value("G39F")
4.14
>>> readout_value("E25S")
4.12
>>> readout_value("E16L")
4.29
>>> readout_value("E36L")
4.68
>>> readout_value("A30M")
4.47
>>> readout_value("V8M")
4.28
>>> readout_value("I19C")
4.1
>>> readout_value("Y9M")
4.4
>>> readout_value("E11Y")
4.83
>>> readout_value("E16A")
4.49
>>> readout_value("E16M")
4.28
>>> readout_value("G14K")
4.37
>>> readout_value("K32N")
4.51
>>> readout_value("A31D")
0.894
>>> readout_value("R33I")
4.28
>>> readout_value("P49D")
4.59
>>> readout_value("D12Y")
4.66
>>> readout_value("A21R")
4.32
>>> readout_value("F10W")
4.44
>>> readout_value("L38Q")
4.21
>>> readout_value("K2W")
4.66
>>> readout_value("K1R")
4.71
>>> readout_value("G14I")
4.58
>>> readout_value("E36H")
4.56
>>> readout_value("K2E")
4.29
>>> readout_value("A30C")
4.16
>>> readout_value("G39P")
2.73
>>> readout_value("E22V")
4.29
>>> readout_value("S23P")
2.12
>>> readout_value("Y48N")
4.45
>>> readout_value("A31G")
4.15
>>> readout_value("K7N")
3.9
>>> readout_value("I47L")
4.48
>>> readout_value("L40K")
3.93
>>> readout_value("A21E")
4.25
>>> readout_value("I42R")
2.53
